- System: MS2 coat protein
- measurement.description: apparent KD of MS2 coat protein; designed switch direction (-1 OFF switch, 1 ON switch): -1; higher = weaker reporter binding
- applied.conditions: input ligand: FMN 200 uM
measure: apparent KD of MS2 coat protein (nM)
Give just the numeric value; nM need not be written.

Examples with their reported apparent KD of MS2 coat protein follow.
CUGCUGGAGCUUUGCUUUGGUCGUACAUGAGGAUCACCCAUGUAGGAUAUGGUAGGCUUUGCUUGCUAGAAGGAUAGAGUGGUC [salish99_ExNG3_r04_609] (Eterna round: R96, puzzle: Exclusion NG 3)	197
UCCACACAUGAGGAUCACCCAUGUCAGGAUAUCUUUAGGGACUAUGGUUAUUCCUAAUAGAGAAGGGACAUAUU [EX1 B.27] (Eterna round: R97, puzzle: Exclusion 1)	152
GGCAGUCGAGGAUAUACGAUCGUGCUUCGGCACGUAAGAUCACAUGAGGAUCACCCAUGUAGAAGGCGACUGCC [Mod 2 - Jieux - Exclusion 2] (Eterna round: R97, puzzle: Exclusion 2)	214
CAUUAGCAAGCGAGAUCCCACAUGAGGAUCACCCAUGUGCUCGUCUUAUAAGGUACUGUGACGAUAGUCACGGUACC [Mat - Sensor, turn-off var - Eli Mod - D41] (Eterna round: R97, puzzle: Sensor, turn-off variant 1)	17.1
AGUUGGCGAGGAUAUACAUGAGGAUCACCCAUGUGAAGAAGAAUAGUGAGGAAGAAAAGUAGAAGGCGCUGACA [Mat - Exclusion 3 - Mod of Salish D37] (Eterna round: R96, puzzle: Exclusion 3)	412

Exam item: For the sequence UUGUUGUAUGUAGGAUAUGCGUAUUAUUAUUAUGCAGAAGGACAUGAGGAUCACCCAUGUGUAUUAUUAUUAUAUAUUAUAUAU [Title] (Eterna round: R96, puzzle: Exclusion NG 1) , what apparent KD of MS2 coat protein is on record?
Marked response: 44.3

Exam item: Try this sequence next: GGUCCUGAUGAUUUCCUAGACAUGAGGAUCACCCAUGUUUAUUUAUUUUGUUUUUAGCUUUUUGGUCGUCAAUAAUA [Mod-Hoo-honey-4] (Eterna round: R97, puzzle: Sensor, turn-off variant 1)
Marked response: 100

Exam item: Try this sequence next: AGCUGACGAGGAUAUACAUGAGGAUCACCCAUGUUGGUCAAGCGACGAUAGUCGCAAUGUAGAAGGCGUCAGCU [E3/8-A1] (Eterna round: R97, puzzle: Exclusion 3)
Marked response: 621

Exam item: Try this sequence next: GCGCUGUCAGGAUAUCGCGCGCGCGCGGAAAUGUGUGUGUGUGAGAAGGGACAUGAGGAUCACCCAUGUGGUGU [-28.5, -27.5 kcal, A 20%, 6-6bis] (Eterna round: R97, puzzle: Exclusion 4)
Marked response: 213

Exam item: Try this sequence next: GACACUCAUGUAAGUAUUUACAUGAGGAUCACCCAUGUACCACUAGAAGACUAGGGAACGAAACGAGCUGGCUGUCA [Eternabot (Original) Solution 6] (Eterna round: R97, puzzle: Sensor, turn-off variant 1)
Marked response: 1290

Exam item: Try this sequence next: CACAUGAGACGGAGAUCCAACAUGAGGAUCACCCAUGUCUCAAAAGCUUUUUGCUUGUCUUAUCCUCCUCUCGUGAC [Mat - Sensor, turn-off var - Eli Mod - D61] (Eterna round: R97, puzzle: Sensor, turn-off variant 1)
Marked response: 47.8

----------
- System: K4 kissing-loop RNA reporter;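 note: bound reporter read as fluorescence of individual clusters on recovered sequencing chips by microscopy, with normalized cluster intensities fitted with a binding model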
- measurement.description: apparent KD of K4 kissing-loop reporter; higher = weaker reporter binding
- applied.conditions: Eterna round: R107; input ligand: FMN 200 uM
measure: apparent KD of K4 kissing-loop reporter (nM)
Give just the numeric value; nM need not be written.

Examples with their reported apparent KD of K4 kissing-loop reporter follow.
AGUGAUAUAUGAGGAUAUGGGUUUGUUAAUGAGUUAUUUUUAGUGUUGUUUGGUUAGUGAUGUUAUUUAGAAGGCGUGAGUGAUG [rrwswwmjmullin]	93.7
AUUUAUUCGAGUGAUGUUCGUGAUUUUUCAGAGGAUAUGCGUAAUAGCAGAAGGCUGUAUUUAUAUAUAUUUUGAUUUUUUUAAA [JR_Nu3_ExcFMNA_Sub024]	82.2

Consider the record given below.
Exam item: Lookup: apparent KD of K4 kissing-loop reporter / K4 kissing-loop RNA reporter / AACCGAGGUAAUCCACAAAGAUAACAUGAUACCAGAUAUAUAAAUAUCCCUUGGCAGCAUGGCAUGAGUGAUGUUCAUGUGUCUU [KL-SSTheo-A10]
Marked response: 441

----------
- System: MS2 coat protein
- measurement.description: apparent KD of MS2 coat protein; higher = weaker reporter binding
- applied.conditions: Eterna round: R107; input ligand: theophylline 2 mM
Here the recorded apparent KD of MS2 coat protein is given for each entry.
Give just the numeric value; nM need not be written.

Examples with their reported apparent KD of MS2 coat protein follow.
CCCGUAAAGGCGGCCGCCACUGUAUGACAUGAGGAUCACCCAUGUAGGGAAAAUGCGAUGGUCGUCAGGACCGGGCCUCUGGCAU [theeternabot_exclusion_MS2_Trp_B_5]	28.2
ACAUGUUGGUGGUAUCUACGAAGGCGGAAACGAGGACCGGUACGGCCGCCACUCGGCGACAUGAGGAUCACCCAUGUGGUUAAGA [Exclusion - Tryptophan A (Freestyle 6)]	131
GACCUUAUCUGAAGGAGCGAGGUAAAUAGGGAUGAGCAUACAUGAGGAUCACCCAUGUGGCCUCAGGUAGGUCGCAGAUGAGAUU [Exclusion Arginine B GF27]	149
ACAUUGCGCUCGGCCGCCACUGCCUUAUGAUUAUAAGGAUUAAUGAACAUGAGGAUCACCCAUGUCAGGACCGGGAGCGAACCAU [SSTryp B #6]	14.1
GAAUAAGAAUCGGCCGCCACUCACAUGAGGAUCACCCAUGUACAUGAGGAACAUGAAAAUCACCCGAGGACCGGGAUAUAUGUUC [Excluion - Tryptophan B #1]	71.3

Consider the record given below.
Exam item: For the sequence CGGUCGGUCGGCCGGUGAUUAUGGGAUGAAGGAGCGUGGGAAGCUACAGGUAGGUCGCAUCCGAAACACGAGGAUCACCCGUGUU [SSArg A #25Alt-Ms2 Mod] , what apparent KD of MS2 coat protein is on record?
Marked response: 37.4

----------
- Tested on: MS2 coat protein
- measurement.description: apparent KD of MS2 coat protein; designed switch direction (-1 OFF switch, 1 ON switch): -1; higher = weaker reporter binding
- applied.conditions: input ligand: FMN 200 uM
Mark F for apparent KD of MS2 coat protein values under 90 nM, and T for everything at or above.

Previously resolved entries follow.
CACUUACAUGAGGAUCACCCAUGUGAGGAUAUCGUGACCAGACGAGAAGUCUAUGUCACGAGAAGGUACAUGGG [Exclusion 1 (Mod 1.1 solution 97 by Eternabot)] (Eterna round: R97, puzzle: Exclusion 1)	T
UAUGUCUCAGGAGGAUAUCUCCCGGUUGCCGUUAGAGAAGGCUUGAAACAUGAGGAUCACCCAUGUAAAUGGCCCGUCCUCCAA [Atsodibian] (Eterna round: R96, puzzle: Exclusion NG 1)	F
UCAGGUGCAGGAUAUACAUGAGGAUCACCCAUGUGAUUAGCAGUCCUCGGACUGCAAUGUAGAAGGGCACCUGA [E3/2-D2] (Eterna round: R97, puzzle: Exclusion 3)	T

Now turn to the next sequence.
Exam item: Confirm if apparent KD of MS2 coat protein reported for the sequence GCGCUGUCAGGAUAUGUGUGUGUGUGUGAAAGCGCGCGCGCGCAGAAGGGACAUGAGGAUCACCCAUGUGGUGU [-31.2, -30.2 kcal, A 20%, 6bis-6bis] (Eterna round: R97, puzzle: Exclusion 4) is 90 nM or above.
Marked response: F

----------
- System: MS2 coat protein
- measurement.description: apparent KD of MS2 coat protein; higher = weaker reporter binding
- applied.conditions: Eterna round: R107; input ligand: tryptophan 2.4 mM
measure: apparent KD of MS2 coat protein (nM)
Give just the numeric value; nM need not be written.

Examples with their reported apparent KD of MS2 coat protein follow.
UAUAUAGAAGGAUGUCAUAUAGAUGCAGAAGGAGCGUAGGAAACUACAGGUAGGUCGCUGAGGUACAUGAGGAUCACCCAUGUAG [SSArg A #17 Slice of Pi]	26.7
UGUAUGUGAUCUGAUACCAGCGAUGAUAACCUGAGGAUCACCCUGGUAAGGCGAAAGCCUCGCCCUUGGCAGCAGAUCGCAUACU	800
AGCGGAACGGAAGGGUCCCGAAAUUGUGAUACCAGCCUUGAAUCCGGCCCUUGGCAGCACAUGAGGAUCACCCAUGUACUGCGGU [Arimaed]	13.1
GACAUGAGGAUCACCCAUGUACCGCGAGAAGGAGCGCGGAUAAACGCAGGUAGGUCGCUCGUGGGCUCACAUUCAAUUGUAAGCU [Digece]	31.6
ACCGCAUCCGUAUAGGAUGCGGCCCAUGAAGGAGCGUGGGAAACCACAGGUAGGUCGCAUGGAUUACAUGAGGAUCACCCAUGUG [Skyfall]	408

Exam item: For the sequence UCGGGCAUGGCGGCCGCCACUGGUUGGCGUGCGGAUGAGGGAACAUGAGGAUCACCCAUGUUGGUUAGGACCGGGCUUGCGUCGU [knkmullin] , what apparent KD of MS2 coat protein is on record?
Marked response: 13.4
